Assay System: c-Met (cytoplasmic domain) (Homo sapiens)
Construct: 10 ng/mL c-Met (cytoplasmic domain, Invitrogen Corporation #PV3143); purchased Invitrogen Corporation PV3143
Sequence (P08581 956-1390 limits assumed): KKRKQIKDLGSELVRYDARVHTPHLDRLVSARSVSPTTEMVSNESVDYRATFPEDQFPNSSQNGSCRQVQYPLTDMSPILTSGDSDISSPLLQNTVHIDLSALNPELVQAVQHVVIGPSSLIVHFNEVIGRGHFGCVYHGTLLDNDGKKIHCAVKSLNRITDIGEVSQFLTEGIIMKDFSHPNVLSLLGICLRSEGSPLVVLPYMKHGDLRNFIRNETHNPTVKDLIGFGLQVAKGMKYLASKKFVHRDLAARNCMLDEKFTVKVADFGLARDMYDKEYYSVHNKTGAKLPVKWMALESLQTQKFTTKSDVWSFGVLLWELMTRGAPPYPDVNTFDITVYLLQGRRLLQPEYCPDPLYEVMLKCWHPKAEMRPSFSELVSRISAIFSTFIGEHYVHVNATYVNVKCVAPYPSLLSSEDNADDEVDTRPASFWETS
Experiment Summary: c-Met Kinase Assay (same methods as for ALK, with modifications)
Assay type: biochemical
Test Parameters: c-Met kinase inhibition, 1 μM ATP; read-out: cMet Activity
pIC50: −log10 of the molar value.
Answer each item with its documented pIC50.

Which pIC50 value is on record for COc1cc2c(cc1Nc1ncc(Cl)c(Nc3ccc(N(C)C)cc3OC)n1)CCN(CC(=O)N1CCN(C)CC1)CC2 ?
< 5.00

Query CNC(=O)c1cccc(Cl)c1Nc1nc(Nc2ccc3c(c2)CCC(=O)NC3(C)C)ncc1Cl next
> 7.00

Query CNC(=O)c1sccc1Nc1nc(Nc2ccc3c(c2)NC(=O)CN(C(C)=O)C3)ncc1Cl next
> 7.00
